This collection of values is drawn from patent US20240174744A1.

Biological target: T1, human iRhom2 (inactive rhomboid protein 2, isoform 1), endogenously expressed on human cells (human, UniProt Q6PJF5 1-856)
T1 sequence: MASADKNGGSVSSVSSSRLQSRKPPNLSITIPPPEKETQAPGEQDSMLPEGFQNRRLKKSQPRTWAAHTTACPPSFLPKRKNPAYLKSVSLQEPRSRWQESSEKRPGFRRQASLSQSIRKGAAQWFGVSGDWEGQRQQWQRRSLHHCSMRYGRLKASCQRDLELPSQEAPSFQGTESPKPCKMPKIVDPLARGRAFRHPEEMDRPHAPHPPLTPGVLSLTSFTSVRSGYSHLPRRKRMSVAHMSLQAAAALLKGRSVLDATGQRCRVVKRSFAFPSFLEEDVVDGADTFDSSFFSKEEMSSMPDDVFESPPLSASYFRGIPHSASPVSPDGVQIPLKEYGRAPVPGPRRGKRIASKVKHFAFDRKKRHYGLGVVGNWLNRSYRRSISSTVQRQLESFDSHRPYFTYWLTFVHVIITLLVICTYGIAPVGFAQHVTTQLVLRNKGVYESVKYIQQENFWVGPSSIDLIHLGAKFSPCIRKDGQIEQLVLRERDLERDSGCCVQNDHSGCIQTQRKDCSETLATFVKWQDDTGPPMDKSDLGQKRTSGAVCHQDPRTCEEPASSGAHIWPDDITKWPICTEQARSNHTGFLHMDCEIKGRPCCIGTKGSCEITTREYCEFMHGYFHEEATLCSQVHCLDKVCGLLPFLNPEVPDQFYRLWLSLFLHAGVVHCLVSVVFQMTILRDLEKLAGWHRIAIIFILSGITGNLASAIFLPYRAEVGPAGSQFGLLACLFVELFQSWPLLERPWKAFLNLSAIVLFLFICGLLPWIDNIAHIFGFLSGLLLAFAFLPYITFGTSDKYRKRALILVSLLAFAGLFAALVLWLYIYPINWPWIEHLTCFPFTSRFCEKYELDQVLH
Experiment: cell-based or functional assay
Property measured: inhibition of PMA-induced release of HB-EGF from THP-1 cells, 3 µg/ml
Value and unit, in that order.

Please give the measured inhibition of PMA-induced release of HB-EGF from THP-1 cells, 3 µg/ml for this binder: chimeric version of antibody 34 (antibody, V domains shown) VH: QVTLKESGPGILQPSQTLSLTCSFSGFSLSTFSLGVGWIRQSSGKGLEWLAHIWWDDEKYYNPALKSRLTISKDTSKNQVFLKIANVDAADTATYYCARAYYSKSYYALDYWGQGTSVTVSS VL: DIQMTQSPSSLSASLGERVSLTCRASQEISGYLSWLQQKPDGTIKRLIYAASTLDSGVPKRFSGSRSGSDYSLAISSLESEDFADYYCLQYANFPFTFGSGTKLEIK 76.1 % inhibition

Please give the measured inhibition of PMA-induced release of HB-EGF from THP-1 cells, 3 µg/ml for this binder: chimeric version of antibody 22 (antibody, V domains shown) VH: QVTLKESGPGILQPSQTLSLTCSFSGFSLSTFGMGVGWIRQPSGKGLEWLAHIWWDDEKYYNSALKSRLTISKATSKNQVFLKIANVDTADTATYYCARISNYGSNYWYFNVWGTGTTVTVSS VL: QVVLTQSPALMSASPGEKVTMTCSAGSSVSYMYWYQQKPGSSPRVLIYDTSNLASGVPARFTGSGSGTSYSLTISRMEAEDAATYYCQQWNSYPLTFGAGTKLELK 81.9 % inhibition
